Target: HRgpA-6H (Porphyromonas gingivalis) (UniProt P28784)
Assay: ELISA, FASEBA Fab on coated HRgpA-6H
Provide the recorded Ratio OD(Variant)/OD(WT) for the entries that follow.
Respond using a number only.

## Task Need Ratio OD(Variant)/OD(WT) of KB001 mouse Fab VL S53W (Fab, V domains shown) VH: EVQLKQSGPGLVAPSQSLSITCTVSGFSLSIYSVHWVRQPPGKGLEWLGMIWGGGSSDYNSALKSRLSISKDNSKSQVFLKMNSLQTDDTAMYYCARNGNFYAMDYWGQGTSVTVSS VL: QIVLTQSPAIMSASLGERVTMTCTASSSVSSSFLHWYQQKPGSSPQLWIYSTWNLASGVPARFSGSGSGTSYSLTISSMEAEDAATYYCHQYHHSPYIYTFGGGTKLEIK , thanks.
## Result 0.923

## Task Need Ratio OD(Variant)/OD(WT) of KB001 mouse Fab VL T52M (Fab, V domains shown) VH: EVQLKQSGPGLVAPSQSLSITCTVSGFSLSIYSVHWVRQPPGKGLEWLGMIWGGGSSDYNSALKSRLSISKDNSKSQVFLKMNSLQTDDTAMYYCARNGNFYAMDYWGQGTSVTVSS VL: QIVLTQSPAIMSASLGERVTMTCTASSSVSSSFLHWYQQKPGSSPQLWIYSMSNLASGVPARFSGSGSGTSYSLTISSMEAEDAATYYCHQYHHSPYIYTFGGGTKLEIK , thanks.
## Result 0.841
